Sequence of the target: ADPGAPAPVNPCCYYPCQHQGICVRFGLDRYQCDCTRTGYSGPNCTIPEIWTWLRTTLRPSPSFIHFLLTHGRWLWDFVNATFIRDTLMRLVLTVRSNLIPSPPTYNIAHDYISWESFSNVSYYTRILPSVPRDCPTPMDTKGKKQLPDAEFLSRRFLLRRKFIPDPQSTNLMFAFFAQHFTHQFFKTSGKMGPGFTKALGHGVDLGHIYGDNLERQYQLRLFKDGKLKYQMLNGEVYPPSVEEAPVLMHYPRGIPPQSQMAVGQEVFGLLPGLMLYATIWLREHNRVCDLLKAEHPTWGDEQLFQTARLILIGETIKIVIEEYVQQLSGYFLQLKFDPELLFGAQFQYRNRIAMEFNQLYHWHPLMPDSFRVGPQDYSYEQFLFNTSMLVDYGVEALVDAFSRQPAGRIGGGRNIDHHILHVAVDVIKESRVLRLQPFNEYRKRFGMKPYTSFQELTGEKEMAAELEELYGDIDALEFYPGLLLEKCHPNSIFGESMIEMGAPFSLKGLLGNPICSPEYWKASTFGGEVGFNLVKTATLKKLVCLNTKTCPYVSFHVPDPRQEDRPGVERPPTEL
Mark each entry criterion met if its IC50 sits below 7 µM, and criterion not met for all others.

The following molecules have reported results that may help.
CCOC(=O)COc1ccc(C2=NN(c3ccc(S(C)(=O)=O)cc3)C(c3ccc(OC)cc3)C2)cc1 (stereo not drawn) [Compound 15c]	criterion not met
CCOC(=O)COc1ccc(C2=NN(c3ccc(S(C)(=O)=O)cc3)C(c3ccc(C)cc3)C2)cc1 (stereo not drawn) [Compound 15b]	criterion not met

Hello, is IC50 of the following molecule strictly smaller than 7 µM? CCOC(=O)COc1ccc(C2=NN(c3ccc(S(C)(=O)=O)cc3)C(c3ccccc3)C2)cc1 (stereo not drawn) [Compound 15a]
criterion not met

What do we get for CCOC(=O)COc1ccc(C2=NN(c3ccc(S(C)(=O)=O)cc3)C(c3cc(OC)c(OC)c(OC)c3)C2)cc1 (stereo not drawn) [Compound 15d] ?
criterion not met

What do we get for CCOC(=O)COc1ccc(C2=NN(c3ccc(S(C)(=O)=O)cc3)C(c3ccc(Cl)cc3)C2)cc1 (stereo not drawn) [Compound 15e] ?
criterion met
